# TEST TARGET: bacterial NAD synthetase enzyme (Bacillus subtilis, UniProt P08164)
# EXPERIMENT: biochemical
# Type: biochemical
# CONDITION DETAILS: compound at 0.2 mM (Table 312A)
With a cut-off of 20%, any % Inhibition strictly below it is called 1; any % Inhibition meeting it or above is called 0.

Examples with answers:
INPUT SMILES: O=[N+]([O-])c1cc([N+](=O)[O-])c2[nH]c(CCCCCCCC[n+]3cccc4ccccc43)cc2c1
TEST TARGET: bacterial NAD synthetase enzyme (Bacillus subtilis, UniProt P08164)
ASSIGNED LABEL: 0
--
INPUT SMILES: COC(=O)c1ccc2c(ccn2CCCCCCCCC[n+]2ccccc2)c1
TEST TARGET: bacterial NAD synthetase enzyme (Bacillus subtilis, UniProt P08164)
ASSIGNED LABEL: 0
--
INPUT SMILES: CC(=O)c1ccc2[nH]c(CCCCCCCC[n+]3ccccc3)cc2c1
TEST TARGET: bacterial NAD synthetase enzyme (Bacillus subtilis, UniProt P08164)
ASSIGNED LABEL: 0
--
INPUT SMILES: O=C(c1ccccc1)c1ccc2[nH]c(CCCCCCCC[n+]3ccccc3)cc2c1
TEST TARGET: bacterial NAD synthetase enzyme (Bacillus subtilis, UniProt P08164)
ASSIGNED LABEL: 0
--
INPUT SMILES: Fc1cc(F)c2[nH]c(CCCCCC[n+]3ccccc3)cc2c1
TEST TARGET: bacterial NAD synthetase enzyme (Bacillus subtilis, UniProt P08164)
ASSIGNED LABEL: 0
--
INPUT SMILES: FC(F)(F)c1ccc2[nH]c(CCCCCCCC[n+]3ccccc3)cc2c1
TEST TARGET: bacterial NAD synthetase enzyme (Bacillus subtilis, UniProt P08164)
ASSIGNED LABEL: 1

# input Strictly below 20%: is that where % Inhibition of FC(F)(F)c1ccc2cc(CCCC[n+]3ccccc3)[nH]c2c1 sits?
# output 1

# input Follow-up entry: O=C(O)c1ccc2[nH]c(CCCCCCCC[n+]3ccccc3)cc2c1
# output 1

* * *

# TEST TARGET: UniProtKB P08164
# Sequence (P08164 2-272 limits assumed): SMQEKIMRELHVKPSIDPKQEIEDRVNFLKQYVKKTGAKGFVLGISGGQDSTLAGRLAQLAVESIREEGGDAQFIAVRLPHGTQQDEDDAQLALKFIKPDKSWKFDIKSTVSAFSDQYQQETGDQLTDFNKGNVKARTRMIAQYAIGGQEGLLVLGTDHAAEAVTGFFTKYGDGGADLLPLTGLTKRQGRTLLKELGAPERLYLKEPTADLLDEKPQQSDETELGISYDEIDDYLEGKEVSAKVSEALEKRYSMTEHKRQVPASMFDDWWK
# EXPERIMENT: biochemical
# Assay type: biochemical
# CONDITION DETAILS: compound at 0.2 mM (Table 312A)
Listed next: entries and their corresponding % Inhibition.
Write the answer as a number in %, unit excluded.

Known results for molecules:
INPUT SMILES: Fc1cc(F)c2[nH]c(CCCC[n+]3ccc4ccccc4c3)cc2c1
ASSAY READOUT: % Inhibition
MEASURED VALUE: 34.72
--
INPUT SMILES: c1ccc(-c2ccc3[nH]c(CCCCCCCC[n+]4ccc5ccccc5c4)cc3c2)cc1
ASSAY READOUT: % Inhibition
MEASURED VALUE: 32.18
--
INPUT SMILES: Fc1ccc2[nH]c(CCC[n+]3cccc4ccccc43)cc2c1
ASSAY READOUT: % Inhibition
MEASURED VALUE: 7.90
--
INPUT SMILES: Fc1cc(F)c2[nH]c(CCCC[n+]3ccccc3)cc2c1
ASSAY READOUT: % Inhibition
MEASURED VALUE: 6.12
--
INPUT SMILES: COc1ccc2c(ccn2CCCCCCOC(=O)Cc2ccc([N+](C)(C)C)cc2)c1
ASSAY READOUT: % Inhibition
MEASURED VALUE: 28.20
--
INPUT SMILES: CC(=O)c1ccc2[nH]c(CCCC[n+]3ccc4ccccc4c3)cc2c1
ASSAY READOUT: % Inhibition
MEASURED VALUE: 31.37
--
INPUT SMILES: COC(=O)c1ccc2[nH]c(CCC[n+]3cccc4ccccc43)cc2c1
ASSAY READOUT: % Inhibition
MEASURED VALUE: 4.97
--
INPUT SMILES: O=C(OCCCCCCCc1cc2cc(Oc3ccccc3)ccc2[nH]1)c1ccncc1
ASSAY READOUT: % Inhibition
MEASURED VALUE: 2.54

# input Can you look up the measured % Inhibition of O=C(O)c1ccc2[nH]c(CCCCCCCC[n+]3cccc4ccccc43)cc2c1 for me?
# output 29.10

# input And for Fc1ccc2[nH]c(CCCCCCC[n+]3ccc4ccccc4c3)cc2c1 ?
# output 46.44
